system: A549; assay: Anticancer activity against human A549 cells after 72 hrs by sulforhodamine B assay; format: functional, cell-based; conditions: A549, 72 h
Exercise: for every item that follows, state its recorded IC50.
Numbers only, in µg/mL.

# count of solved cases: 3
{"COMPOUND": "C[C@H](CCCCC(=O)O)O[C@@H]1O[C@@H](C)[C@H](O)C[C@H]1O [DAUMONE]", "IC50 [µg/mL]": 0.03}
{"COMPOUND": "C=CCN1CCN(C(=O)CCCC[C@@H](C)O[C@@H]2O[C@@H](C)[C@H](O)C[C@H]2O)CC1", "IC50 [µg/mL]": 0.54}
{"COMPOUND": "C[C@H](CCCCCCN=[N+]=[N-])O[C@@H]1O[C@@H](C)[C@H](O[C@@H]2O[C@@H](C)[C@H](O)C[C@H]2O)C[C@H]1O[C@@H]1O[C@@H](C)[C@H](O)C[C@H]1O", "IC50 [µg/mL]": 0.24}

Report IC50 for each item below.
1. COC(=O)CCCC[C@@H](C)O[C@@H]1O[C@@H](C)[C@H](O[C@@H]2O[C@@H](C)[C@H](O)C[C@H]2O)C[C@H]1O[C@@H]1O[C@@H](C)[C@H](O)C[C@H]1O
2. CCCCCC[C@H](CCCCCCCCCCC(=O)O)O[C@@H]1O[C@@H](C)[C@H](O[C@@H]2O[C@@H](C)[C@H](O)C[C@H]2O)C[C@H]1O
3. CC1CCN(C(=O)CCCC[C@@H](C)O[C@@H]2O[C@@H](C)[C@H](O[C@@H]3O[C@@H](C)[C@H](O)C[C@H]3O)C[C@H]2O[C@@H]2O[C@@H](C)[C@H](O)C[C@H]2O)CC1
4. CCCCCCCCCCCCCCNC(=O)CCCC[C@@H](C)O[C@@H]1O[C@@H](C)[C@H](O)C[C@H]1O
5. CCCCCC[C@H](CCCCCCCCCCC(=O)OC)O[C@@H]1O[C@@H](C)[C@H](O[C@@H]2O[C@@H](C)[C@H](O)C[C@H]2O)C[C@H]1O[C@@H]1O[C@@H](C)[C@H](O)C[C@H]1O
6. C[C@H](CCCCC(=O)NCc1ccco1)O[C@@H]1O[C@@H](C)[C@H](O[C@@H]2O[C@@H](C)[C@H](O)C[C@H]2O)C[C@H]1O[C@@H]1O[C@@H](C)[C@H](O)C[C@H]1O
7. C[C@@H]1O[C@H]2O[C@@H](C)CCCCCCCCC(=O)O[C@@H]3C[C@@H](O)[C@@H](O[C@H]3C)O[C@@H]2C[C@H]1O
8. C[C@H](CCCCC(=O)NCCCN1CCCC1=O)O[C@@H]1O[C@@H](C)[C@H](O)C[C@H]1O

1: 0.13; 2: 0.64; 3: 0.06; 4: 0.16; 5: 0.12; 6: 0.08; 7: 0.63; 8: 0.76

What does the data say about its IC50? Entry: C[C@H](CCCCC(=O)OCc1cccc(Oc2ccccc2)c1)O[C@@H]1O[C@@H](C)[C@H](O)C[C@H]1O
0.24
